List of IC50 values.
Biological target: human recombinant HDAC1 (Homo sapiens)
Sequence (Q13547 whole entry): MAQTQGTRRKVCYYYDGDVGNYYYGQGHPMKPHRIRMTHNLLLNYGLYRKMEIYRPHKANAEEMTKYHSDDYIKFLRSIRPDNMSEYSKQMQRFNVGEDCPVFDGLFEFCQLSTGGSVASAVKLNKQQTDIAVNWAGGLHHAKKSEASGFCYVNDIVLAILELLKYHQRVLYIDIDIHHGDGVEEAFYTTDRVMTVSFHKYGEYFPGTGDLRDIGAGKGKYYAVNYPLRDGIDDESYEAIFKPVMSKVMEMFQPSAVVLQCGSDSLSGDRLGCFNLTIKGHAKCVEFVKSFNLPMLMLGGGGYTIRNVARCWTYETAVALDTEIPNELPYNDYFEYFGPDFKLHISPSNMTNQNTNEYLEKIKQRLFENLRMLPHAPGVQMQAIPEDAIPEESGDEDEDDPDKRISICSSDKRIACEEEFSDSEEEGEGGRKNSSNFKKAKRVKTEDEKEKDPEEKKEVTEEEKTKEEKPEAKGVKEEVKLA
Assay: HDAC1 enzyme activity inhibition assay (HDAC Fluorimetric Drug Discovery Kit)
Settings: 0.3 μg enzyme, 10 μM substrate, 30° C., 60 minutes
Answer in µM, number only, no unit symbol.

| COMPOUND | TARGET_ENTITY | UNIT_OF_MEASUREMENT | IC50 |
| --- | --- | --- | --- |
| CCS(=O)(=O)N(Cc1ccc(-c2nnc(C(F)F)o2)cn1)c1cc(Cl)cc(Cl)c1 [Compound 11506] | human recombinant HDAC1 (Homo sapiens) | µM | 59.7 |

Memo: O=S(=O)(CCCN1CCCC1)N(Cc1ccc(-c2nnc(C(F)F)o2)cc1)c1ccc(F)c(Cl)c1 [Compound 11722] , reported IC50: 41

Memo: O=S(=O)(CCCN1CCCC1)N(Cc1ccc(-c2nnc(C(F)F)o2)cc1)c1ccccc1 [Compound 11647] , reported IC50: 79.8

Memo: CN1CCC(S(=O)(=O)N(Cc2ccc(-c3nnc(C(F)F)o3)cc2)c2ccccc2)CC1 [Compound 11637] , reported IC50: 67

Memo: O=S(=O)(CCN1CCCC1)N(Cc1ccc(-c2nnc(C(F)F)o2)cc1F)c1ccc(F)c(Cl)c1 [Compound 11514] , reported IC50: 40.3

Memo: CCS(=O)(=O)N(Cc1ccc(-c2nnc(C(F)(F)F)o2)cn1)c1ccccc1 [Compound 11430] , reported IC50: 22.2

Memo: NC(=O)[C@@H]1CCCN1CCS(=O)(=O)N(Cc1ccc(-c2nnc(C(F)F)o2)cn1)c1ccccc1 [Compound 11847] , reported IC50: 24.5

---

Biological target: human recombinant HDAC6 (Homo sapiens, UniProt Q9UBN7)
Construct: purchased Calbiochem 382180
Test: HDAC6 enzyme activity inhibition assay (HDAC Fluorimetric Drug Discovery Kit)
Type: biochemical
Conditions: HDAC1 vs HDAC6
MEASUREMENT_NAME: HDAC6 selectivity (fold)
Answer in fold, number only, no unit symbol.

Solved entries:
| COMPOUND | TARGET_ENTITY | HDAC6 selectivity (fold) |
| --- | --- | --- |
| Cc1ccc(N(Cc2ccc(-c3nnc(C(F)(F)F)o3)cc2F)S(C)(=O)=O)cc1 [Compound 11282] | human recombinant HDAC6 (Homo sapiens, UniProt Q9UBN7) | 781 |
| CS(=O)(=O)N(Cc1ccc(-c2nnc(C(F)(F)F)o2)cc1F)c1ccccc1F [Compound 11273] | human recombinant HDAC6 (Homo sapiens, UniProt Q9UBN7) | 1266 |
| CS(=O)(=O)N(Cc1ccc(-c2nnc(C(F)F)o2)cc1F)c1ccc2c(c1)CCC2 [Compound 11747] | human recombinant HDAC6 (Homo sapiens, UniProt Q9UBN7) | 1050 |

Turning now to a further record.
Memo: CS(=O)(=O)N(Cc1ccccn1)Cc1ccc(-c2nnc(C(F)(F)F)o2)cn1 [Compound 11128] , reported HDAC6 selectivity (fold): 192

---

List of log10(IC50) values.
Target: human recombinant HDAC6 (Homo sapiens, UniProt Q9UBN7)
Sequence (Q9UBN7 1-1215): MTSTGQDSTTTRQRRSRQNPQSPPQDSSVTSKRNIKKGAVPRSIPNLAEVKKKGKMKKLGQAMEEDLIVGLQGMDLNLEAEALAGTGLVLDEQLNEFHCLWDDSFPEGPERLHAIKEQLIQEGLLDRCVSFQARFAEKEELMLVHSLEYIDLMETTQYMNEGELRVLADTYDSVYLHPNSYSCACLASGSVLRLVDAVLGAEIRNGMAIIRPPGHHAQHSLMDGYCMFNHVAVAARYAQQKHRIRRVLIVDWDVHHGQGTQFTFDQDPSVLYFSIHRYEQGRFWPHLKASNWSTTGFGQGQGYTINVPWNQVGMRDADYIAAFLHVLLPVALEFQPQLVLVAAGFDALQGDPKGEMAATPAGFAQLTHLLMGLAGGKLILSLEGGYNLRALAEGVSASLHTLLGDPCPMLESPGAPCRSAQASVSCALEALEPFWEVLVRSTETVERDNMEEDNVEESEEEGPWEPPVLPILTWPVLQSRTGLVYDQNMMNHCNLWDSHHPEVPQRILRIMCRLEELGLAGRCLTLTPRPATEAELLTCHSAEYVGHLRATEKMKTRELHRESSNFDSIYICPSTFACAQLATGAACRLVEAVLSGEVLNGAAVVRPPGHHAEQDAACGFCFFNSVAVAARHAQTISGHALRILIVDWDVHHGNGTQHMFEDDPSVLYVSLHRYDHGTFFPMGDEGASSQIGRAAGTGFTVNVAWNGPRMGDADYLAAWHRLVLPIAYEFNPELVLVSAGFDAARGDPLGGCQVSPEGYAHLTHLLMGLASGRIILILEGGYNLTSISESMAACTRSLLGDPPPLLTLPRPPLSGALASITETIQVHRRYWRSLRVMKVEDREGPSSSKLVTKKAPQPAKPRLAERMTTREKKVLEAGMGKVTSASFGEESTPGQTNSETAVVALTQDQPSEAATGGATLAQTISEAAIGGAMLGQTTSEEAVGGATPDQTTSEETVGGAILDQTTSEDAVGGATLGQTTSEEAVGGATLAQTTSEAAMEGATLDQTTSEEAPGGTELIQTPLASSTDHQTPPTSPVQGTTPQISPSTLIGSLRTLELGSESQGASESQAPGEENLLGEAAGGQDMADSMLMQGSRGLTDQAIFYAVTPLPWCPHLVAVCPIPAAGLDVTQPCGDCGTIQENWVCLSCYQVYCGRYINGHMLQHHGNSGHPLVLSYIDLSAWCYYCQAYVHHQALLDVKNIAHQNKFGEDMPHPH
Experiment: HDAC6 enzyme activity inhibition assay (HDAC Fluorimetric Drug Discovery Kit)
Conditions: same protocol as the HDAC1 enzyme activity test
The figures below represent log10 of IC50, where IC50 is stated in nM.

Solved entries:
| MOLECULE | TARGET_ENTITY | MEASUREMENT_NAME | VALUE |
| --- | --- | --- | --- |
| Cc1cccc(N(Cc2ccc(-c3nnc(C(F)F)o3)cn2)S(=O)(=O)C2CCN(C3CN(C(=O)CO)C3)CC2)c1 | human recombinant HDAC6 (Homo sapiens, UniProt Q9UBN7) | log10(IC50) | 1.65 |
| N#CC1CCN(CCS(=O)(=O)N(Cc2ccc(-c3nnc(C(F)F)o3)cc2)c2ccccc2)CC1 | human recombinant HDAC6 (Homo sapiens, UniProt Q9UBN7) | log10(IC50) | 1.78 |
| CN(C)CCCS(=O)(=O)N(Cc1ccc(-c2nnc(C(F)F)o2)cc1)c1ccccc1 | human recombinant HDAC6 (Homo sapiens, UniProt Q9UBN7) | log10(IC50) | 1.23 |

Memo: `CS(=O)(=O)N(Cc1ccc(-c2nnc(C(F)(F)F)o2)cc1F)c1cncc(F)c1` , reported log10(IC50): 1.71

Memo: Cc1cccc(N(Cc2ccc(-c3nnc(C(F)F)o3)cc2)S(=O)(=O)C2CCN(C3CC(O)C3)CC2)c1 (stereo not drawn) , reported log10(IC50): 1.91

Memo: `CC(C)(C)OC(=O)N1CCN(CCS(=O)(=O)N(Cc2ccc(-c3nnc(C(F)F)o3)cc2)c2ccccc2)CC1` , reported log10(IC50): 2.36

Memo: `CS(=O)(=O)N(Cc1ccc(-c2nnc(C(F)(F)F)o2)cc1F)c1ccccc1F` , reported log10(IC50): 1.90

Memo: `O=S(=O)(CCCN1CCCC1)N(Cc1ccc(-c2nnc(C(F)F)o2)cn1)c1ccccc1` , reported log10(IC50): 1.71

Memo: `COc1ccc(N(Cc2ccc(-c3nnc(C(F)F)o3)cc2F)S(C)(=O)=O)cc1` , reported log10(IC50): 1.43

Memo: `O=S(=O)(CCCN1CC[C@H](F)C1)N(Cc1ccc(-c2nnc(C(F)F)o2)cc1)c1ccccc1` , reported log10(IC50): 2.20

Memo: O=S(=O)(C1CCN(C2CC(F)C2)CC1)N(Cc1ccc(-c2nnc(C(F)F)o2)cc1)c1cccc(Cl)c1 (stereo not drawn) , reported log10(IC50): 2.28

Memo: `CS(=O)(=O)N(Cc1ccc(-c2nnc(C(F)F)o2)cc1)c1nc2ccccc2s1` , reported log10(IC50): 2.73

Memo: `C[C@@H]1CN(CCCS(=O)(=O)N(Cc2ccc(-c3nnc(C(F)F)o3)cc2)c2ccccc2)C[C@H](C)N1C` , reported log10(IC50): 1.28

Memo: `CS(=O)(=O)N(Cc1ccc(-c2nnc(C(F)(F)F)o2)cc1F)c1cccc(Br)c1` , reported log10(IC50): 1.81

Memo: `O=S(=O)(CCN1CCCOCC1)N(Cc1ccc(-c2nnc(C(F)F)o2)cc1)c1ccccc1` , reported log10(IC50): 2.06

These data points were gathered from patent US10538498B2.
